Catalogue of IC50 values
target: purified recombinant IDO1 (Homo sapiens, UniProt P14902); construct: Full-length human IDO1 gene was cloned into the pET-28a vector; inferred from pET-28a vector and HisTrap purification; made in house; host or cells: E. coli Rosetta (DE3); experiment: Enzymatic IDO1 inhibition assay (ascorbate/methylene blue reduction system, HPLC detection of kynurenine); type: biochemical; conditions: enzymatic; L-Trp 100 µM, 0.01% Triton X-100, 5% DMSO, 20 min at room temperature, pH 6.5; duplicates; read-out: IC50 [ μ M] (SD)
Sequence (P14902 whole entry): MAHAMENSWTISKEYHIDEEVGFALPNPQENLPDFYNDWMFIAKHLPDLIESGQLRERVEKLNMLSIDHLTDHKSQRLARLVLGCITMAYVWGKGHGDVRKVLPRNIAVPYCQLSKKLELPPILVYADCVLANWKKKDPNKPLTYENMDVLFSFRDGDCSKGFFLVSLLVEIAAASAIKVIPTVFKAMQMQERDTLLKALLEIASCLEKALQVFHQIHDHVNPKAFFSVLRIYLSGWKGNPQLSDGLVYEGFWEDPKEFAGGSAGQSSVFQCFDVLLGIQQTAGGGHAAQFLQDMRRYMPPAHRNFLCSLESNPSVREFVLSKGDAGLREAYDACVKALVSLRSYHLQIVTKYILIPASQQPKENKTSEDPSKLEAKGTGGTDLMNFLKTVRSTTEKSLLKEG

Some compounds with known IC50 results, for comparison:
| compound | IC50 |
| --- | --- |
| NC(=O)CSc1nnc2sc3ccccc3n12 [Compound 168] | > 1000 µM |
| O=C(Nc1ccccc1)c1cn[nH]n1 [Compound 86, N-Phenyl-1H-1,2,3-triazole-4-carboxamide] | > 1000 µM |
| O=C(c1ccc(Br)cc1)c1[nH]nnc1CO [Compound 123] | > 1000 µM |

// sample c1ccc2c(c1)Cc1n[nH]nc1-2 [Compound 89, 3,8-Dihydroindeno[1,2-d][1,2,3]triazole] , its IC50 was > 1000 µM

// sample O=C(Nc1c(Cl)cccc1-c1nc[nH]n1)c1ccccc1 [Compound 154] , its IC50 was > 1000 µM

// sample O=C(Nc1ccccc1-c1nc[nH]n1)c1ccccc1 [Compound 152] , its IC50 was > 100 µM

// sample c1ccc(CCOc2ccccc2-c2c[nH]nn2)cc1 [Compound 26, 4–(2-Phenethoxyphenyl)-1,2,3-triazole] , its IC50 was > 100 µM

// sample Brc1ccc(Nc2nnc[nH]2)cc1 [Compound 166] , its IC50 was > 1000 µM

// sample c1ccc(Nc2cnn[nH]2)cc1 [Compound 79] , its IC50 was > 100 µM

// sample Clc1cc(Cl)c(-c2c[nH]nn2)c(Cl)c1 [Compound 53, 4–(2,4,6-Trichlorophenyl)-1,2,3-triazole] , its IC50 was > 500 µM
